Target: G250E BCR-Abl (Homo sapiens, UniProt P00519, G250E)
Construct: expressed in transfected cells; host or cells: Ba/F3; the other entry of the earlier key: BCR (P11274, Breakpoint cluster region protein)
Test: Antiproliferative effect on Ba/F3 cells expressing G250E BCR-Abl
Assay type: cell-based
Details: Ba/F3 cells expressing G250E mutant
pIC50: −log10 of the molar value.
MEASUREMENT NAME: pIC50

1 = Cc1cn(-c2cc(C(=O)Nc3ccc(C)c(NC(=O)n4ccc5c(Nc6cccc(N(C)C)c6)ncnc54)c3)cc(C(F)(F)F)c2)cn1 [Example 3]
2 = Cc1cn(-c2cc(C(=O)Nc3ccc(C)c(NC(=O)n4ccc5c(Nc6cccc(C(N)=O)c6)ncnc54)c3)cc(C(F)(F)F)c2)cn1 [Example 7]
*Q* Name the one with the greater pIC50 value, either 1 or 2 as given. Pick one; state its label.
*A* 2
